// provenance: ChEMBL document CHEMBL5344406

Tested on: Bacillus subtilis
Assay: Antibacterial activity against Bacillus subtilis assessed as bacterial growth inhibition by serial dilution method
Format: functional
Measurement Label: MIC (µg/mL)
Value expressed in µg/mL; do not type the unit.

                                  structure  measurement_label  obs_value
0  NC(=O)N/N=C/c1ccccc1OCc1cn(-c2ccc(Cl)cc2)nn1                MIC         25
1  NC(=S)N/N=C/c1ccccc1OCc1cn(Cc2ccc(Br)cc2)nn1                MIC       6.25
2  NC(=O)N/N=C/c1ccccc1OCc1cn(-c2ccc(F)cc2)nn1                MIC         25

Given `NC(=O)N/N=C/c1ccccc1OCc1cn(-c2ccc(Br)cc2)nn1` , state its recorded MIC.
25

# iterate: `O=C(O)c1cn(C2CC2)c2cc(N3CCNCC3)c(F)cc2c1=O`
25
